Assay: Cytotoxicity, MTT method, HGF non-malignant cells
Assay type: cell-based, human
Settings: human, gingival fibroblasts (HGF), non-malignant, mean ± SD
observed_property: CC50 at 48 h (µM)

compound=O=C1/C(=C/c2ccc(Cl)c(Cl)c2)CN(C(=O)CC(=O)N2C/C(=C\c3ccc(Cl)c(Cl)c3)C(=O)/C(=C/c3ccc(Cl)c(Cl)c3)C2)C/C1=C\c1ccc(Cl)c(Cl)c1 qual=> measured_number=100
compound=CN(C)c1ccc(/C=C2\CN(C(=O)C(=O)N3C/C(=C\c4ccc(N(C)C)cc4)C(=O)/C(=C/c4ccc(N(C)C)cc4)C3)C/C(=C\c3ccc(N(C)C)cc3)C2=O)cc1 qual=> measured_number=100
compound=O=C1/C(=C/c2ccc(Cl)cc2)CN(C(=O)CC(=O)N2C/C(=C\c3ccc(Cl)cc3)C(=O)/C(=C/c3ccc(Cl)cc3)C2)C/C1=C\c1ccc(Cl)cc1 qual== measured_number=41
compound="COc1cc(/C=C/C(=O)CC(=O)/C=C/c2ccc(O)c(OC)c2)ccc1O [Curcumin, reference compound]" qual== measured_number=70

====

Property: CC50 at 48 h; scope: individual molecules
Experiment: Cytotoxicity, MTT method, HPC non-malignant cells
Type: cell-based, human
Conditions: human, pulp cells (HPC), non-malignant, mean ± SD
observed_property: CC50 at 48 h

molecule="O=C1/C(=C/c2ccc(Cl)c(Cl)c2)CN(C(=O)CC(=O)N2C/C(=C\\c3ccc(Cl)c(Cl)c3)C(=O)/C(=C/c3ccc(Cl)c(Cl)c3)C2)C/C1=C\\c1ccc(Cl)c(Cl)c1 [Compound 3d]" observed_property="CC50 at 48 h" result="> 100 µM"
molecule="COc1ccc(/C=C2\\CN(C(=O)C(=O)N3C/C(=C\\c4ccc(OC)cc4)C(=O)/C(=C/c4ccc(OC)cc4)C3)C/C(=C\\c3ccc(OC)cc3)C2=O)cc1 [Compound 2h]" observed_property="CC50 at 48 h" result="63 µM"
molecule="O=C1/C(=C/c2ccc(Cl)c(Cl)c2)CN(C(=O)C(=O)N2C/C(=C\\c3ccc(Cl)c(Cl)c3)C(=O)/C(=C/c3ccc(Cl)c(Cl)c3)C2)C/C1=C\\c1ccc(Cl)c(Cl)c1 [Compound 2d]" observed_property="CC50 at 48 h" result="23 µM"
molecule="COc1ccc(/C=C2\\CN(C(=O)C(=O)N3C/C(=C\\c4ccc(OC)c(OC)c4)C(=O)/C(=C/c4ccc(OC)c(OC)c4)C3)C/C(=C\\c3ccc(OC)c(OC)c3)C2=O)cc1OC [Compound 2f]" observed_property="CC50 at 48 h" result="2.4 µM"
molecule="COc1cc(/C=C2\\CN(C(=O)C(=O)N3C/C(=C\\c4cc(OC)c(OC)c(OC)c4)C(=O)/C(=C/c4cc(OC)c(OC)c(OC)c4)C3)C/C(=C\\c3cc(OC)c(OC)c(OC)c3)C2=O)cc(OC)c1OC [Compound 2g]" observed_property="CC50 at 48 h" result="0.28 µM"

====

Experiment: Cytotoxicity, average over the three human normal cells
Assay type: cell-based
Conditions: human, average of HGF, HPC, HPLF; read-out: AVE CC50, human normal cells
observed_property: CC50 at 48 h

molecule="O=C1/C(=C/c2ccc(Cl)cc2)CN(C(=O)CC(=O)N2C/C(=C\\c3ccc(Cl)cc3)C(=O)/C(=C/c3ccc(Cl)cc3)C2)C/C1=C\\c1ccc(Cl)cc1 [Compound 3c]" result="41.3 µM"
molecule="O=C1/C(=C/c2ccc(Cl)cc2)CN(C(=O)C(=O)N2C/C(=C\\c3ccc(Cl)cc3)C(=O)/C(=C/c3ccc(Cl)cc3)C2)C/C1=C\\c1ccc(Cl)cc1 [Compound 2c]" result="> 50 µM"
molecule="O=C1/C(=C/c2ccc(Cl)c(Cl)c2)CN(C(=O)CC(=O)N2C/C(=C\\c3ccc(Cl)c(Cl)c3)C(=O)/C(=C/c3ccc(Cl)c(Cl)c3)C2)C/C1=C\\c1ccc(Cl)c(Cl)c1 [Compound 3d]" result="> 50 µM"
molecule="N[C@@H](Cc1ccc(N(CCCl)CCCl)cc1)C(=O)O [Melphalan, reference compound]" result="> 50 µM"
